# RUN DESCRIPTION: chemical genetic growth profiling, strain panel (AID 1159580);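 note: tested at 20 µM; growth read once vehicle control cultures reached saturation at 30 °C; 1 = growth at the plate median or of vehicle wells; lower values mean less growth of the strain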
# CONDITION SUMMARY: S. cerevisiae deletion strains, growth OD, locus YOR265W, strain rbl2, hits give low values
About 2,000 (36%) of roughly 5,500 compounds were called active. Inconclusive results (about 18%) are left out. The list shows a part of the results.
ENDPOINT NAME: normalized growth

• CC12CCC(OC(=O)c3ccccc3)CC1CCc1ccccc12 (stereo not given) = 0.998
• CC(=O)NC1C(O)OC(COS(=O)(=O)O)C(OC2OC(C(=O)O)C(OC3OC(CO)C(OC4OC(C(=O)O)C(O)C(O)C4OS(=O)(=O)O)C(OS(=O)(=O)O)C3NS(=O)(=O)O)C(O)C2OS(=O)(=O)O)C1O (stereo not given) = 0.972
• CC(=O)NS(=O)(=O)c1ccc(N)cc1 = 1.01
• O=C(N[C@@H](CO)[C@H](O)c1ccc([N+](=O)[O-])cc1)C(Cl)Cl = 1.02
• NC(Cc1ccc(Cl)cc1)C(=O)O (stereo not given) = 0.986
